# Tested on: Botrytis cinerea
# procedure-details: Antifungal activity against Botryotinia fuckeliana after 7 days
# Format: functional
# Design: concentration or dose not given beside the values
Provide the reported Activity of each item.
Answers are plain numbers, in %.

COc1ccc2[nH]c(-c3ccncc3)nc2c1 yielded Activity of 60

Others:
Cc1cccc2[nH]c(-c3ccccn3)nc12 yielded Activity of 60

----------
Provide the reported Activity of each item.
# Test system: Echinochloa crus-galli
# procedure-details: Herbicidal activity against Echinochloa crus-galli (barnyard grass) assessed as disease control at 1000 ppm treated in paddy field during 15 to 20 days relative to control
# Assay type: functional

Here are 5 molecules together with their reported answers.
Clc1ccc2sc(-c3ccccn3)nc2c1 yielded Activity of <39%

c1ccc2nc(-c3nc4ccccc4s3)ccc2c1 yielded Activity of <39%

c1ccc(-c2nc3ccccc3o2)nc1 yielded Activity of <39%

Clc1ccc2nc(-c3ccccn3)[nH]c2c1 yielded Activity of <39%

c1ccc2nc(-c3nc4ccccc4o3)ccc2c1 yielded Activity of <39%

Record Activity per entry; entries follow.
1. Clc1cccc2nc(-c3ccccn3)[nH]c12
2. O=[N+]([O-])c1ccc2[nH]c(-c3ccccn3)nc2c1
3. FC(F)(F)c1ccc2sc(-c3ccccn3)nc2c1
4. c1ccc2oc(-c3nc4ccccc4s3)nc2c1
5. COc1ccc2sc(-c3ccncc3)nc2c1
6. c1ccc2oc(-c3ccncc3)nc2c1
7. c1ccc(-c2nc3ccccc3[nH]2)nc1
8. O=[N+]([O-])c1cccc2nc(-c3ccccn3)[nH]c12

Result string:
<39%
<39%
>80%
<39%
<39%
40%
<39%
<39%

Record Activity per entry; entries follow.
1. COc1ccc2sc(-c3ccccn3)nc2c1
2. COc1ccc2[nH]c(-c3ccncc3)nc2c1
3. CCOc1ccc2sc(-c3ccncc3)nc2c1
4. Cc1ccc2nc(-c3ccccn3)[nH]c2c1
5. CCOc1ccc2sc(-c3ccccn3)nc2c1
6. Cc1cccc2[nH]c(-c3ccccn3)nc12

Result string:
["<39%", "<39%", "<39%", "<39%", "40%", "<39%"]
